Listing: melting point of selected compounds

Worked examples, 5 compounds total:
1. Nc1nc(=O)n(CC2CCCO2)cc1F (stereo not given)
168 to 170 °C
2. COc1ccc(F)c(C(=O)O)c1
144 to 146 °C
3. Cc1ccc(S(=O)(=O)c2ccc3[nH]c(C)c(CCNC(=O)OC(C)(C)C)c3c2)cc1
134 to 138 °C
4. CC(C)NCC1CCN(c2c(F)cc3c(=O)c(C(=O)O)cn(C4CC4)c3c2F)C1 (stereo not given)
218 to 221 °C
5. Fc1cc(F)c(CN2CCNc3ncc(I)cc32)cc1F
154 to 156 °C

Which value of melting point has been reported for CS(=O)(=O)OCCCc1ccc(OCc2ccccc2)cc1 in the records?
74 to 75 °C

Param item = Nc1nc2ccccc2c2c1ncn2CCCCNC(=O)c1cccnc1 ; retrieve measured melting point.
189 to 190 °C

// lookup melting point for CNC(=O)c1cc(C(=O)NOCC2CC2)c(Nc2ccc(I)cc2C)c(F)c1F
198 to 202 °C

Quick one: melting point for CCCc1c(-c2cc(=O)c3c(O)cc(OCC(=O)OCC)cc3o2)ccc(OC)c1O ?
138 °C

Which melting point is reported for this compound? N#Cc1cnc2ccccc2c1Nc1ccc(Cl)cc1Cl
260 to 262 °C

====

Quantity measured: melting point

Use these answered entries as a reference point.
1. CCOC(=O)c1ccccc1CN1C(=O)C(CCOc2ccc(CCNC(=O)OC(C)(C)C)cc2)Oc2ccccc21 (stereo not given)
103 to 105 °C
2. CCOC(=O)c1ccc(-c2ncc(-c3ccc(Cl)cc3)o2)cc1
195 to 197 °C
3. CON=CCOc1ccccc1S(N)(=O)=O
103 to 105 °C

Fill in: melting point of COC(=O)C1=Cc2cc(Br)ccc2N(c2ccccc2)CC1 is ___
104 to 106 °C

Could you share which melting point value was measured for O=C(O)CCc1cnoc1-c1ccc(C(F)(F)F)cc1 ?
171 to 172 °C

Fill blank: measured melting point of the molecule Cc1c(NC(=O)c2cc3c(s2)C(O)CCC3)cccc1-c1cn(C)c(=O)c(Nc2ccc(C3C(=O)N(C)CCN3C)cc2)n1 (stereo not given) is ____.
165 to 166 °C

Any idea what melting point was measured for CCCCCCCCCCC1CNC(=O)O1 (stereo not given) ?
86 to 87 °C

Data request, read-out melting point, for CCN(CC)c1ccc(C2(c3ccc(N(CC)CC)cc3N(CC)CC)OC(=O)c3ccccc32)c(Cl)c1 (stereo not given)
141 to 143 °C

What melting point value was documented for this molecule, Nc1c2c(nc3ccc(Br)cc13)CCC2 ?
236 to 238 °C

Could you share which melting point value was measured for O=C1NCCCN2c3ccccc3CC12 (stereo not given) ?
159 °C

====

The reader will find reported melting point values listed item by item below.

Some entries whose results are on file:
1) COc1ccc2[nH]c(C(=O)OC(C)(C)C)c(N)c2c1
146 to 147 °C
2) CCc1[nH]n(C2CCCC2)c2nc(-n3ccnc3)nc(=O)c1-2
228 to 230 °C
3) CSC(=S)N(C)N=Cc1ccco1
103 °C
4) CCN(CC)CCCNc1ncc2cc(-c3c(C)cccc3C)c(NC(=O)NC(C)(C)C)nc2n1
86 to 91 °C
5) COc1cccc2c1cc(C)n2Cc1ccc(F)cc1
104 to 108 °C

For O=S(=O)(c1ccc(Cn2cnnn2)cc1)C1CCN(CCc2ccc(F)cc2F)CC1 , what is its reported melting point?
168 to 169 °C

# melting point lookup, item Fc1ccc(-c2cn3c(n2)SCC3)cc1
116 to 118 °C

May I ask what melting point has been recorded for CCN1c2ncc(CCc3ccnc(C)c3)cc2C(=O)N(C)c2ccc(Cl)nc21 ?
94 to 96 °C

Field request: melting point | item: CCCCOC(=O)c1cc(=O)c2c3c(cc(Cl)c2o1)-c1ccc(S(=O)(=O)O)cc1C(C)(C)O3
241 to 243 °C

# get_value(readout='melting point', item= N#Cc1ccc(C=CC(=O)N2CCc3c([nH]c4ccccc34)C2c2ccc3c(c2)OCO3)cc1 (configuration not stated) )
167 °C

Need melting point, item Cc1ccc(OCC(=O)c2ccc3c(c2)C(C)(C)CCC3(C)C)cc1O
144 to 145 °C

Can you share its melting point? I mean this compound: COC(=O)c1nc2n(n1)-c1ccc(Cl)cc1N(c1ccccc1)C2
190 to 194 °C

Bench note: what melting point did Cc1c(F)cc(C(=O)O)c(Cl)c1[N+](=O)[O-] show?
186 to 188 °C

melting point lookup needed for C#Cc1cc(Nc2ncnc3cnc(C)cc23)ccc1F , thanks.
225 °C
